# MEASUREMENT_DESCRIPTION: coupled detection enzyme interference, dose response, artefact control for MgcRacGAP inhibitor project, biochemical, coupled enzyme counter-screen (AID 624351);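 also: signal is the ADP detection kit reading of free GDP without any GAP enzyme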
# ASSAY_CONDITIONS: ADP Hunter coupled enzyme counter-screen, fluorescence, no MgcRacGAP; series mostly up to 80 µM
Out of some 2,400 compounds screened, about 1,400 (58%) were called active.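 The calls were made as follows: active = inhibition of 30% or more at any tested dose; inconclusive = primary hits over the limit that were never retested; inactive = the rest.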 So high a share suggests a set chosen from earlier hits. This is one part of the list.
Answer with one of the outcomes YES (active), NO (inactive)

Q: Hey, what did the test say about `Oc1ccc2c(ccc3[nH]cnc32)c1` ?
Ans: YES

Q: Hey, what did the test say about `Oc1ccc(Nc2ccnc3cc(Cl)ccc23)cc1` ?
Ans: YES

Q: Hey, what did the test say about `COc1cc(/C=C/C(=O)OCC(=O)c2ccc[nH]2)ccc1O` ?
Ans: YES

Q: Hey, what did the test say about `COc1cc(/C=C/C(=O)OCC(=O)c2ccc(OC(F)F)cc2)ccc1O` ?
Ans: YES

Q: Hey, what did the test say about `Cc1nnc(N=c2ssnc2Cl)o1` ?
Ans: NO

Q: Hey, what did the test say about `Oc1ccc(N2CCN(c3ccnc4cc(Cl)ccc34)CC2)cc1` ?
Ans: YES

====

# MEASUREMENT_DESCRIPTION: coupled detection enzyme interference, dose response, artefact control for MgcRacGAP inhibitor project, biochemical, coupled enzyme counter-screen (AID 624351);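 also: signal is the ADP detection kit reading of free GDP without any GAP enzyme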
# ASSAY_CONDITIONS: ADP Hunter coupled enzyme counter-screen, fluorescence, no MgcRacGAP; series mostly up to 80 µM
Screen size: about 2,400 compounds; about 1,400 (58%) were called active. The set was probably picked from earlier hits. The list shows a part of the results.
READOUT_LABEL: IC50

Q: Recall and state the measured IC50 for C#CCOCCOCCOCCNc1nc(N2CCN(C(=O)[C@H](CCCN=C(N)N)n3cc(C(N)[C@H](C)CC)nn3)CC2)nc(N2CCN(C(=O)[C@H](CCCN=C(N)N)n3cc(C(N)[C@@H](C)CC)nn3)CC2)n1 (stereo not given in full) .
Ans: inactive

Q: Recall and state the measured IC50 for `COc1ccc(C(C#N)=C2C=CC(=NO)C=C2)cc1` .
Ans: 57.4 µM (active)

Q: Recall and state the measured IC50 for COc1cc2c(cc1OC)C(c1cc(Br)c(OC)c(OC)c1)CC(=O)N2 (stereo not given) .
Ans: inactive

Q: Recall and state the measured IC50 for `COc1cc(CNc2ccc(N3CCOCC3)cc2)cc(Br)c1OC` .
Ans: 12.5 µM (active)

Continuing:
Q: Recall and state the measured IC50 for `C#CCOCCOCCOCCNc1nc(N2CCN(C(=O)[C@H](CCCCN)n3cc(CN)nn3)CC2)nc(N2CCN(C(=O)[C@H](CCCCN)n3cc(CN)nn3)CC2)n1` .
Ans: inactive

====

# MEASUREMENT_DESCRIPTION: coupled detection enzyme interference, dose response, artefact control for MgcRacGAP inhibitor project, biochemical, coupled enzyme counter-screen (AID 624351);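 also: signal is the ADP detection kit reading of free GDP without any GAP enzyme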
# ASSAY_CONDITIONS: ADP Hunter coupled enzyme counter-screen, fluorescence, no MgcRacGAP; series mostly up to 80 µM
Among all 2,400 compounds or so, about 1,400 (58%) were called active.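 How the source made its calls: active means inhibition of 30% or more at any tested dose; inconclusive means primary hits over the limit that were never retested; inactive means the rest.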 So high a share suggests a set chosen from earlier hits. This is one part of the list.
Answer with one of the outcomes active, inactive

These solved cases illustrate the format of a correct answer.
Q: Hey, what did the test say about `COc1ccc(CNCC(=O)Nc2cc(OC)cc(OC)c2)cc1` ?
Ans: inactive

Q: Hey, what did the test say about `CC(=O)Oc1ccc([N+](=O)[O-])cc1N1C(=O)c2ccccc2C1=O` ?
Ans: inactive

Q: Hey, what did the test say about CCOC(=O)c1c(C)n(-c2ccc(C)cc2)c2ccc(OCC(O)CNCC3CCCO3)cc12 (stereo not drawn) ?
Ans: inactive

Q: Hey, what did the test say about `CCS(=O)(=O)c1cc([N+](=O)[O-])c(Sc2ccccc2N)s1` ?
Ans: inactive

Q: Hey, what did the test say about `COc1cc(NC(=O)COC(=O)/C=C/c2ccc(O)c(OC)c2)cc(OC)c1` ?
Ans: active

Continuing:
Q: Hey, what did the test say about CC1=NN(C(N)=S)C(=O)C1N=Nc1ccc(O)cc1 (stereo not drawn) ?
Ans: active

Q: Hey, what did the test say about `COc1cc(/C=C2\C(=O)N(CCC#N)N=C2C)ccc1OCC(=O)Nc1ccccc1` ?
Ans: inactive

Just for reference, PubChem BioAssay AID624351 is where these values come from.
